Target: GST-Nv-NF-kB (Ser allele) (Nematostella vectensis, UniProt A7UNT2 2-411)
Sequence: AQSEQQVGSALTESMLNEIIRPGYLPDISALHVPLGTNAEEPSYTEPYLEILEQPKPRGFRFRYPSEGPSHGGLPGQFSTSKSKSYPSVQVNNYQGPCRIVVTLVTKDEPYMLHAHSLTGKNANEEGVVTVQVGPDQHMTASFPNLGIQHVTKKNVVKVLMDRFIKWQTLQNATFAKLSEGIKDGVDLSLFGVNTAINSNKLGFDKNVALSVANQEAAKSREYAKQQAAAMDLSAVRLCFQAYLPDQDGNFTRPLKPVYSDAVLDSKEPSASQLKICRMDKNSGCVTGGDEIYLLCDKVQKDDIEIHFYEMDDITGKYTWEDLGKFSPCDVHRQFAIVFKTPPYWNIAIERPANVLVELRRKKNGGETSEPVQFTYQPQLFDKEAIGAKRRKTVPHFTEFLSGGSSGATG
Test: protein-binding microarray (PBM); PBM: ~300 nM protein, 6 mM HEPES pH 7.8, 80 mM KCl, 0.5 mM EDTA, 0.5 mM EGTA, 6% glycerol, 35 ng/ul poly-dIdC, 1% milk, 1 h, room temperature; high values mean tight binding
Conditions: dsDNA, one strand shown
REPORTED_PROPERTY: binding signal

> print(dat)
                                   sequence        result
1  CCGATTAACATCAGCTAGTCCCTTGATGTTAATCGGGTCTTGATTCGCTTGACGCTGCTG  2.09 z-score
2  CCGATTAACATCAGAGTTCCCCCTGATGTTAATCGGGTCTTGATTCGCTTGACGCTGCTG  8.12 z-score
3  CCGATTAACATCAGGGGAGGGACTGATGTTAATCGGGTCTTGATTCGCTTGACGCTGCTG  4.55 z-score
4  CCGATTAACATCAGGCAGTCCCCTGATGTTAATCGGGTCTTGATTCGCTTGACGCTGCTG  3.59 z-score
5  CCGATTAACATCAGGGGGGTACCTGATGTTAATCGGGTCTTGATTCGCTTGACGCTGCTG  3.85 z-score
6  CCGATTAACATCAGGGGATTTGATGATGTTAATCGGGTCTTGATTCGCTTGACGCTGCTG  8.85 z-score
7  CCGATTAACATCAGGGGAAACAATGATGTTAATCGGGTCTTGATTCGCTTGACGCTGCTG  9.76 z-score
8  CCGATTAACATCAGGGACTTTCATGATGTTAATCGGGTCTTGATTCGCTTGACGCTGCTG  7.09 z-score
9  CCGATTAACATCAGGGGAGGTTATGATGTTAATCGGGTCTTGATTCGCTTGACGCTGCTG  4.77 z-score

====

Target: GST-Dm-Relish (Drosophila melanogaster, UniProt Q94527 99-473)
Sequence: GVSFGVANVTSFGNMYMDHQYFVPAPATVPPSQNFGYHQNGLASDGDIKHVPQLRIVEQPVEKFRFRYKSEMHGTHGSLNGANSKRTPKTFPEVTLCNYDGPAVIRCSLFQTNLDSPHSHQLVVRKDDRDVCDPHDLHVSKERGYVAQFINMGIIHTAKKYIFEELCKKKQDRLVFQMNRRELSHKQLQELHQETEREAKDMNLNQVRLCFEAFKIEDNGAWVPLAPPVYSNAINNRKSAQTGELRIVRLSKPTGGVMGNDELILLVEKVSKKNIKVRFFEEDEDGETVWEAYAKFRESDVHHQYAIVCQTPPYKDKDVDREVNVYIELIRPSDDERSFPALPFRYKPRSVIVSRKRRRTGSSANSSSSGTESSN
Test: protein-binding microarray (PBM); PBM: ~300 nM protein, 6 mM HEPES pH 7.8, 80 mM KCl, 0.5 mM EDTA, 0.5 mM EGTA, 6% glycerol, 35 ng/ul poly-dIdC, 1% milk, 1 h, room temperature; Ap Aiptasia and Nv Nematostella (sea anemones) / Co Capsaspora / Aq Amphimedon (sponge) / Dm Drosophila / Hu human; RHD is the Rel homology domain; high values mean tight binding
Conditions: dsDNA, one strand shown
Just so you know, the groups by binding signal go like this: one (below 4 z-score), two (4 z-score to below 8 z-score), three (8 z-score or more)

> print(dat)
                                   sequence                             tested.target  qualitative.label
1  CCGATTAACATCAGGGGGTTACCTGATGTTAATCGGGTCTTGATTCGCTTGACGCTGCTG  GST-Dm-Relish (Drosophila melanogaster, UniProt Q94527 99-473)              three
2  CCGATTAACATCAAAAAATCCCATGATGTTAATCGGGTCTTGATTCGCTTGACGCTGCTG  GST-Dm-Relish (Drosophila melanogaster, UniProt Q94527 99-473)              three
3  CCGATTAACATCACAGAAACCCCTGATGTTAATCGGGTCTTGATTCGCTTGACGCTGCTG  GST-Dm-Relish (Drosophila melanogaster, UniProt Q94527 99-473)                two
4  CCGATTAACATCAAGGGGAATTATGATGTTAATCGGGTCTTGATTCGCTTGACGCTGCTG  GST-Dm-Relish (Drosophila melanogaster, UniProt Q94527 99-473)                two
5  CCGATTAACATCAACGTTTCCCCTGATGTTAATCGGGTCTTGATTCGCTTGACGCTGCTG  GST-Dm-Relish (Drosophila melanogaster, UniProt Q94527 99-473)                one
6  CCGATTAACATCAGGGGGGGGCATGATGTTAATCGGGTCTTGATTCGCTTGACGCTGCTG  GST-Dm-Relish (Drosophila melanogaster, UniProt Q94527 99-473)                one
7  CCGATTAACATCAGAAATACCCATGATGTTAATCGGGTCTTGATTCGCTTGACGCTGCTG  GST-Dm-Relish (Drosophila melanogaster, UniProt Q94527 99-473)                one
8  CCGATTAACATCAGGAAATCACCTGATGTTAATCGGGTCTTGATTCGCTTGACGCTGCTG  GST-Dm-Relish (Drosophila melanogaster, UniProt Q94527 99-473)                two
9  CCGATTAACATCACCCCACCCCCTGATGTTAATCGGGTCTTGATTCGCTTGACGCTGCTG  GST-Dm-Relish (Drosophila melanogaster, UniProt Q94527 99-473)                two

From: paper PMC5700166
